B1: OR4K15 (parent)
chain: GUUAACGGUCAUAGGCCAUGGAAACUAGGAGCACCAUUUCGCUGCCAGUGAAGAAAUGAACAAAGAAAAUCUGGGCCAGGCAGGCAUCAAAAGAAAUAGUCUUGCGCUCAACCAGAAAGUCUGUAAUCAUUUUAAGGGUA

variants of: B1; assay: self-cleavage, relative activity (ratio to wild type); higher = more cleavage; in vitro, sequencing; the parent is a self-cleaving ribozyme
Please go through the items and note down their self-cleavage.
Numbers only.

| Seq | Quantity measured | Experimental result |
| --- | --- | --- |
| GUUAACGGUCAUAGGCCAUGGAAACUAGGAGCACCAUUUCGCUGCCAGUGGAGAAAUGAACAAAGAAAAUCUGGGCCAGGCAGGCAUCAAAAGAAAUAGUCUUGCGCCCAACCAGAAAGUCUGUAAUCAUUUUAAGGGUA [A51G U108C] | self-cleavage | 0.02 |
| GUUAACGGUCAUAGGCCAUGGAAACUAGGAGCACCAUUUCGCUGCCAGUGAAGAAAUGAGCAAAGAAAAUCUGGGCCAGGCAGGCAUCAAAAGAAAUAGUCUUGCGCCCAACCAGAAAGUCUGUAAUCAUUUUAAGGGUA [A60G U108C] | self-cleavage | 0.03 |
| GUUAACGGUCAUAGGCCAUGGAAACUAGGAGCACCAUUUCGCUGCCAGUGAAGAAAUGAACAAAGAAAAUCUGGGCCAGGCAGGCAUCAAAAGAAACAGUCUUGCGCUCAACCAGAAAGUCUGUAAUCAUUUCAAGGGUA [U97C U133C] | self-cleavage | 1.53 |
| GUUAACGGUCAUAGGCCAUGGAAACUAGGAGCACCAUUUCGCUGCCAGCGAAGAAAUGAACAAAGAAAAUCUGGGCCAGGCAGGCAUCGAAAGAAAUAGUCUUGCGCUCAACCAGAAAGUCUGUAAUCAUUUUAAGGGUA [U49C A89G] | self-cleavage | 1.26 |
| GUUAACGGUCAUAGGCCAUGGAAACUAGGAGCACCAUUUCGCUGCCAGUGAAGAAAUGAACAAAGAAAAUCUGGGCCAGGCAGGCAUCAAAAGAAAUAGUCUUGCGCUCAACCAGAAAGUCUGUAGUCAUUUUGAGGGUA [A126G A134G] | self-cleavage | 1.17 |

// each listed variant needs a value for self-cleavage
1. GUUAACGGUCAUAGGCCAUGGAAACUAGGAGCACCAUUUCGCUGCCAGUGAAGAAAUGGGCAAAGAAAAUCUGGGCCAGGCAGGCAUCAAAAGAAAUAGUCUUGCGCUCAACCAGAAAGUCUGUAAUCAUUUUAAGGGUA [A59G A60G]
2. GUUAACGGUCAUAGGCCAUGGAAACUAGGAGCACCAUUUCGCUGCCAGUGAGGAAAUGAACAAAGAAAAUCUGGGCCAGGCAGGCAUCAAAAGAAAUAGUCUUGCGCUCAACCAGAAAGUCUGUAAUCAUUAUAAGGGUA [A52G U132A]
3. GUUAACGGUCAUAGGCCAUGGAAACUAGGAGCACCAUUUCGCUGCCAGUGAAGAAAUGAACAAAGGAAAUCUGGGCCAGGCAGGCAUCAAAAGAAAUAGUCUUGCGCUCAACCAGAAAGUCUGUAAUCAUUUCAAGGGUA [A66G U133C]
4. GUUAACGGUCAUAGGCCAUGGAAACUAGGAGCACCAUUUCGCUGCUAGUGAAGAAAUGAACAAAGAAAAUCUGGGCCAGGCAGGCAUCAAAAGAAAUAGUCUUGCGCUCAACCAGAAAGUCUGUAAUCAUUUUAAGGGCA [C46U U139C]
5. GUUAACGGUCAUAGGCCAUGGAAACUAGGAGCACCAUUUCGCUGCCAGUGAAGAAAUGAACAAAGAAAAUCAGGGCCAGGCAGGCAUCAAAAGAAAUAGUCUUGCGCACAACCAGAAAGUCUGUAAUCAUUUUAAGGGUA [U72A U108A]
6. GUUAACGAUCAUAGGCCAUGGAAACUAGGAGCACCAUUUCGCUGCCAGUGAAGAAAUGAACAAAGAAAAUCUGGGCCAGGCAGGCAUCAAAAGAAAUAGUCUUGCGCUCAACCAGAAAGUCUGUAAUCAUUUUAAGGGUA [G8A]

1: 0.59; 2: 0.88; 3: 1.82; 4: 2.16; 5: 0.04; 6: 1.61

// each listed variant needs a value for self-cleavage
1. GUUAACGGUCAUAGGCCAUGGAAACUAGGAGCACCAUUUCGCUGCCAAUGAAGAAAUGAACAAAGAAAAUCUGGGCCAGGCAGGCAUCAAAAGAAAUAGUCUUGCGCUCAACCAGAAAGUCUGUAAUCACUUUAAGGGUA [G48A U130C]
2. GUUAACGGUCGUAGGCCAUGGAAACUAGGAGCACCAUUUCGCUGCCAGUGAAGAAAUGAACAAAGAAAAUCUGGGCCAGGCAGGCAUCAAAAGAAAUAGUCUUGCGCUCAACCAGCAAGUCUGUAAUCAUUUUAAGGGUA [A11G A116C]
3. GUUAACGGUCAUAGGCCAUGGAAACUAGGAGCACCAUUUCGCUGCCAGUGAAGAAAUGAACAAAGAAAAUCUGGGCCAGGCAGGCAUCAAGAGAAAUAGUCUUGCGCUCAACCAGCAAGUCUGUAAUCAUUUUAAGGGUA [A91G A116C]
4. GUUAACGGUCAUAGGCCAUGGAAACUAGGAGCACCAUAUCGCUGCCAGUGAAGAAAUGAACAAAGAAAAUCUGGGCCAGGCAGGCAUCAAAAGAAAUAGUCUUGCGCUCAACCAGAUAGUCUGUAAUCAUUUUAAGGGUA [U38A A117U]
5. GUUAACGGUCAUAGGCCAUGGAAACUAGGAGCACCAUUCCGCUGCCAGUGAAGAAAUGAACAAAGAAAAUCUGGGCCAGGCAGGCAUCAAAAGAAAAAGUCUUGCGCUCAACCAGAAAGUCUGUAAUCAUUUUAAGGGUA [U39C U97A]
6. GUUAACGGUCAUAGGCCAUGGAAACUAGGAGCACCAUUUCGCUGCCAGUGAAGAAAUGAACAAAGAAAAUCUGGGCCAGGCAGGCAUCAAAAGAAAUUGUCUUGCGCUCAACCUGAAAGUCUGUAAUCAUUUUAAGGGUA [A98U A114U]
7. GUUAACGGUCAUAGGCCAUGGAAACUAGGAGCACCAUUUCGCUGCCAGUGAAGAAAUGAACAAAGAAAAUCUGGGCCAGGCAGGCAUCAAAAGAAAUAGUCUUGCGCCCAACCAGAAAGUCUGUAAUCAUUUCAAGGGUA [U108C U133C]
8. GUUAACGGUCAUAGGCCAUGGAAACUAGGAGCACCAUUUCGCUGCCAGUGAAGGAAUGAACAAAGAUAAUCUGGGCCAGGCAGGCAUCAAAAGAAAUAGUCUUGCGCUCAACCAGAAAGUCUGUAAUCAUUUUAAGGGUA [A54G A67U]

[0.82, 0.1, 0.04, 0.73, 1.16, 0.12, 0.02, 2.17]
